The reported numbers originate from patent US11173162B2.

- System: FGFR3 enzyme
- assay-details: FGFR Enzymatic Assay (FRET peptide phosphorylation), FGFR3
- Assay type: biochemical
- condition-info: IC50 ratio showing FGFR3 selectivity; Table 2A, pre-incubated for 4 hours
quantity: FGFR1/FGFR3

In the examples that follow, each entry is paired with its recorded FGFR1/FGFR3.
record-smiles	FGFR1/FGFR3
CCn1cnc(-c2cc3c(cn2)CN(c2c(F)c(OC)cc(OC)c2F)C(=O)C32CC2)c1	>5
COc1cc(OC)c(F)c(N2Cc3cnc(-c4cn(C)nc4C)cc3N(CCc3cnn(C)c3)C2=O)c1F	>3
COc1cc(OC)c(F)c(N2Cc3cnc(-c4cncc(N5CCOCC5)c4)cc3C3(CC3)C2=O)c1F	>3
COc1cc(OC)c(F)c(N2Cc3cnc(-c4ccncc4)cc3C3(CC3)C2=O)c1F	>3
COc1cc(OC)c(F)c(N2Cc3cnc(-c4cnn(C)c4)cc3C3(CC3)C2=O)c1F	>5
COc1cc(OC)c(F)c(N2Cc3cnc(-c4cn(C)nc4C)cc3N(c3ccccc3F)C2=O)c1F	>3

Items follow; give FGFR1/FGFR3 for each.
1. COc1cc(OC)c(F)c(N2Cc3cnc(-c4cn(CCCN5CCOCC5)nc4C)cc3C3(CC3)C2=O)c1F
2. COc1cc(OC)c(F)c(N2Cc3cnc(-c4cn(C)nc4C)cc3N(C3(C#N)CC3)C2=O)c1F

1. >10
2. >5
